measurement target: human recombinant LTA4 hydrolase (Homo sapiens, UniProt P09960)
Sequence (P09960 1-611): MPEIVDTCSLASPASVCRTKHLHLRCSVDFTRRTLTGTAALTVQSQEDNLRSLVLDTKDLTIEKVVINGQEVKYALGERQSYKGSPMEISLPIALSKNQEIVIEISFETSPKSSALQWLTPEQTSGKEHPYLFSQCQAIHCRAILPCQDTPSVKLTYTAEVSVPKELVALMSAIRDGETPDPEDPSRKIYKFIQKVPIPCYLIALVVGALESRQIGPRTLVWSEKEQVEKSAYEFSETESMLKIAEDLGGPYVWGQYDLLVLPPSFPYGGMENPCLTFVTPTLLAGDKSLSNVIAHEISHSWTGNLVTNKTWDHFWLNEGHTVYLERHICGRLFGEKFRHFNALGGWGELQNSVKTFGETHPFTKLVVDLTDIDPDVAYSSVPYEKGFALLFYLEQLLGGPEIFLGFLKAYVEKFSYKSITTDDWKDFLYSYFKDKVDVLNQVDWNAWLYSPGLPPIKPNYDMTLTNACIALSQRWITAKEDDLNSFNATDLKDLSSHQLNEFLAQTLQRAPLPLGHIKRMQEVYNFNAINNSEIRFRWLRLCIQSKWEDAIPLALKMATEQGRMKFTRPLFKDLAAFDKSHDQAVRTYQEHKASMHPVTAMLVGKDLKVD
measurement notes: Inhibition of the aminopeptidase activity of recombinant LTA4 hydrolase (fluorimetric, Ala-AMC substrate)
measurement conditions: in vitro
Method: The compounds were tested using human recombinant LTA4 hydrolase (Minami et al., FEBS Letters, 1988, 229: 279). The LTA4 hydrolase expressed by E. coli JM109 is purified mainly according to Minami et al., (J. Biol. Chem., 1987, 262: 13873). The inhibition of the aminopeptidase activity of the enzyme is measured by means of a fluorimetric method in 96-well microplates. […] The release of AMC is measured by fluorimetry.
Structures can show the parent of a compound that is named as a salt.
observable: Ki (µM)
# unit: µM | format: bare number

[in] # get_value(readout='Ki', item= NC(CCCCOc1ccc(Cc2ccccc2)cc1)C(=O)O (racemic) [compound 51, hydrobromide] )
[out] 0.032

###

# Lookup of reported melting point keyed by entry
# unit: °C | format: bare number

Solved entries:
compound | melting point / °C
Br.NC(CCCOc1ccc(Cc2ccccc2)cc1)C(=O)O (racemic) | 199
Br.NC(CCCCOc1ccc(-c2ccccc2)cc1)C(=O)O (racemic) | 185
Br.NC(CCCOc1ccc(Oc2ccccc2)cc1)C(=O)O (racemic) | 162

[in] # get_value(readout='melting point', item= Br.CCCCCCOc1ccc(OCCCCC(N)C(=O)O)cc1 (racemic) )
[out] 135

[in] # get_value(readout='melting point', item= Br.NC(CCCCOc1ccc(Oc2ccccc2)cc1)C(=O)O (racemic) )
[out] 130

[in] # get_value(readout='melting point', item= Br.NC(CCCCCCOc1ccc(Cc2ccccc2)cc1)C(=O)O (racemic) )
[out] 120

[in] # get_value(readout='melting point', item= Br.NC(CCCCCOc1ccc(Cc2ccccc2)cc1)C(=O)O (racemic) )
[out] 100
